Study System: T1, monkey GPC3-His protein (monkey)
T1 construct: Bought recombinant protein; also called monkey GPC3 protein
Test Method Notes: ELISA, monkey GPC3-His coated;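 also: Plate-coated antigen at 1 µg/mL, antibody binding 2 h at 37 °C, detected with HRP-labeled secondary antibody and TMB, absorbance at 450 nm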
Property Name: OD450 at 0.01 nM (OD450)
Numeric answer only, unit OD450 assumed.

**Q:** Tell me measured OD450 at 0.01 nM for F1.153.1 (antibody, human IgG1, kappa, V domains shown, Human-murine chimeric antibody) VH: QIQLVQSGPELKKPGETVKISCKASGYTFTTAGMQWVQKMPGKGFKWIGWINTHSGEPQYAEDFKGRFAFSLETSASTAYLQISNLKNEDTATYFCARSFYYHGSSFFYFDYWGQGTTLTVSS VL: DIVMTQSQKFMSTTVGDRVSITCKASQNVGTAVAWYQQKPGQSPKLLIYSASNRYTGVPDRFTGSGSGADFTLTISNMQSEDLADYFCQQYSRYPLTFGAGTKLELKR please.
**A:** 0.49

**Q:** Tell me measured OD450 at 0.01 nM for F1.120.16 (antibody, human IgG1, kappa, V domains shown, Human-murine chimeric antibody) VH: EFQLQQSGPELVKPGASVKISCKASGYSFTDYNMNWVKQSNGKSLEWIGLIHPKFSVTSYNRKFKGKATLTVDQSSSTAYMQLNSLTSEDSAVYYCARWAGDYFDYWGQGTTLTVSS VL: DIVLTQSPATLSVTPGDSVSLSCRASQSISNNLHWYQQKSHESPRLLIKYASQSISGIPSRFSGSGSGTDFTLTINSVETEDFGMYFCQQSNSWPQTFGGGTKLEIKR please.
**A:** 0.26
